Source of measurements: patent US6897219B2

Counter-ions that a name gives are not always drawn.
Readout Label: melting point

{"Compound": "Clc1cncc(N2CCCNCC2)n1 (as salt: fumaric acid salt)", "melting point": "180 to 181 °C"}

Please give the measured melting point for this compound: CCOc1cncc(N2CCCNCC2)c1 (as salt: fumaric acid salt) 157.5 to 159 °C

Please give the measured melting point for this compound: CN1CCCN(c2cccc([N+](=O)[O-])c2)CC1 163.1 to 164.4 °C

Please give the measured melting point for this compound: c1ccc2c(N3CCCNCC3)cncc2c1 (as salt: fumaric acid salt) 160 to 162 °C

###

This listing pairs compounds with measured melting point.
Counter-ions that a name gives are not always drawn.

Use the examples below as a reference point.
{"Compound": "CCOc1cc(N2CCCNCC2)cnc1Br (as salt: fumaric acid salt)", "Meas Value": "181.7 to 183.2 °C"}
{"Compound": "COc1cncc(N2CCNCC2)c1 (as salt: fumaric acid salt)", "Meas Value": "168.5 to 170.5 °C"}
{"Compound": "O=S(=O)(Oc1cncc(N2CCCNCC2)c1)C(F)(F)F (as salt: fumaric acid salt)", "Meas Value": "154 to 156 °C"}
{"Compound": "CN1CCCN(c2cncc(-c3ccccc3)c2)CC1 (as salt: fumaric acid salt)", "Meas Value": "161 to 162 °C"}
{"Compound": "Clc1ccc(N2CCCNCC2)nn1 (as salt: fumaric acid salt)", "Meas Value": "165 to 166 °C"}
{"Compound": "COc1cncc(N2CCCNCC2)c1 (as salt: fumaric acid salt)", "Meas Value": "161 to 162 °C"}

Moving on to another compound below.
Please give the measured melting point for this compound: CN1CCCN(c2cncc(OCC3CCCCC3)c2)CC1 (as salt: fumaric acid salt) [Compound 14E] 160.4 to 162 °C

###

# Assayed System: nAChRs comprised of α4 and β2 subunits (Rattus norvegicus, UniProt P09483+P12390)
# Sequence (P09483 31-630): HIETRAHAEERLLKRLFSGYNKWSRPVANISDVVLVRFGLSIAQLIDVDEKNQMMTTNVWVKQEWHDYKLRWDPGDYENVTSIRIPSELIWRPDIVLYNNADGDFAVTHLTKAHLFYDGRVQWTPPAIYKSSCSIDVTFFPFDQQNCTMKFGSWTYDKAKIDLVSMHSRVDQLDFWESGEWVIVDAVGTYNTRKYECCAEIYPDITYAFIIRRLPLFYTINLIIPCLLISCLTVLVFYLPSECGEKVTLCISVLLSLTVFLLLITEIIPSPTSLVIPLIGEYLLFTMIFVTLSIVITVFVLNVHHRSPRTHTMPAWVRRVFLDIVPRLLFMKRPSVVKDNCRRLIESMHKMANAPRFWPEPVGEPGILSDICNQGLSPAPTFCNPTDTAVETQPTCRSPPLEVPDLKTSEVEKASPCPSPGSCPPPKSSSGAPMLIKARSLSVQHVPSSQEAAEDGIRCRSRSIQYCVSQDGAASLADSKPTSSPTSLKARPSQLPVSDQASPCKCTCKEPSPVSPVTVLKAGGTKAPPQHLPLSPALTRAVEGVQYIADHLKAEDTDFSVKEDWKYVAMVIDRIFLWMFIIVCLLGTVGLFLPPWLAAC
# Sequence (P12390 25-500): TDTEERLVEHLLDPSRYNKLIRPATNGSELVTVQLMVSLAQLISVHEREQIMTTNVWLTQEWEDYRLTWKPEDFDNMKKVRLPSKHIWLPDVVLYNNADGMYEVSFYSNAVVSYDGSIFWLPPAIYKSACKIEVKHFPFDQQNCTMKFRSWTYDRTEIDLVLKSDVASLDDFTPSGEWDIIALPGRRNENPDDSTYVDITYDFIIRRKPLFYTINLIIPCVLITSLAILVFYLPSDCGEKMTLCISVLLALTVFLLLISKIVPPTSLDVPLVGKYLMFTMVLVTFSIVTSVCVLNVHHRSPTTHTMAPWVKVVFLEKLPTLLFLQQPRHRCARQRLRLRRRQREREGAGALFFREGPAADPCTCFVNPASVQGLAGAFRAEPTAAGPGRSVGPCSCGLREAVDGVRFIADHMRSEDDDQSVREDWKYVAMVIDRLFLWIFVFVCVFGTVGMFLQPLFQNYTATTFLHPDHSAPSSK
# Protocol Summary: In vitro inhibition of 3H-cytisine binding
Readout Label: pIC50
# log scale: pIC50 equals minus log10 of the concentration in mol/L

Please give the measured pIC50 for this compound: CN1CCCN(c2cncc(OCC3CC3)c2)CC1 7.11

Please give the measured pIC50 for this compound: Cc1ccc(N2CCCNCC2)nn1 6.80

Please give the measured pIC50 for this compound: Clc1ccc(N2CCCNCC2)nn1 8.00

###

# Assayed System: nAChR formed by the α7 subunit isoform (Rattus norvegicus, UniProt Q05941)
# Sequence (Q05941 23-502): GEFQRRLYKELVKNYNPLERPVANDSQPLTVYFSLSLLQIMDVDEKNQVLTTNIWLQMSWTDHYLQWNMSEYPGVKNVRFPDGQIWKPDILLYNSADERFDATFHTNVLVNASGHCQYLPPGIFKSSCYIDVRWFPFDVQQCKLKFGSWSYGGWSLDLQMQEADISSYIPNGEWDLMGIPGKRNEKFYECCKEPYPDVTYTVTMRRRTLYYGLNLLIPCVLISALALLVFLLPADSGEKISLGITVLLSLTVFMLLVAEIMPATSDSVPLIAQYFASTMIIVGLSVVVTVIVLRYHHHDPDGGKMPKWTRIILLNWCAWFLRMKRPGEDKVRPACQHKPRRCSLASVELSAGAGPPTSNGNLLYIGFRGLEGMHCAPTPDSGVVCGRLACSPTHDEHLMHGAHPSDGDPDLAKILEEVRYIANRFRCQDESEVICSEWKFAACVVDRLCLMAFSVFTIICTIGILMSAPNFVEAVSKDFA
# Protocol Summary: biochemical
# Assay type: binding
# Conditions: read-out: 3H-α-bungarotoxin IC50
Readout Label: pIC50
# log scale: pIC50 equals minus log10 of the concentration in mol/L

Please give the measured pIC50 for this compound: FC(F)(F)c1cncc(N2CCCNCC2)c1 [Compound 6K] 5.19

###

# Assayed System: neuronal nicotinic receptors (α4β2 subtype high affinity site) (Rattus norvegicus, UniProt P09483+P12390)
# Construct: The forebrain (÷cerebellum) from a male Wistar rat (150-250 g) is homogenized; from tissue; host or cells: rat forebrain (without cerebellum) membrane homogenate
# Sequence (P09483 31-630): as the sequence (P09483 31-630) above
# Sequence (P12390 25-500): as the sequence (P12390 25-500) above
# Protocol Summary: In vitro inhibition of 3H-epibatidin binding
Readout Label: pIC50
# log scale: pIC50 equals minus log10 of the concentration in mol/L

Use the examples below as a reference point.
{"Compound": "COc1cc(N2CCCNCC2)cnc1Cl [Compound 5F]", "pIC50": 8.30}
{"Compound": "CCOc1cncc(N2CCNCC2)c1 [Compound 1D, 1-(5-Ethoxy-3-pyridyl)piperazine]", "pIC50": 6.00}
{"Compound": "Clc1cncc(N2CCNCC2)c1 [Compound 4B, 1-(5-Chloro-3-pyridyl)-piperazine]", "pIC50": 5.52}
{"Compound": "COc1cncc(N2CCN(C)C2)c1 [Compound 1M]", "pIC50": 5.06}
{"Compound": "COc1cncc(N2CCCNCCC2)c1 [Compound 6B]", "pIC50": 8.49}

Please give the measured pIC50 for this compound: c1ncc(N2CCCNCC2)cc1OCC1CC1 [Compound 9H] 8.22

Please give the measured pIC50 for this compound: c1cnnc(N2CCCNCC2)c1 [Compound 1L, 1-(3-Pyridazinyl)-homopiperazine] 6.60

Please give the measured pIC50 for this compound: CN1CCN(c2cncc(Cl)c2)CC1 [Compound 5A] 6.19

Please give the measured pIC50 for this compound: CN1CCCN(c2cccnc2)CC1 [Compound 1E, 4-Methyl-1-(3-pyridyl)-homopiperazine] 6.40

Please give the measured pIC50 for this compound: COCCOc1cncc(N2CCCNCC2)c1 [Compound 5H] 7.70
